The following compounds are listed with their measured pKi values.
Target: Thymidylate synthase (Lactobacillus casei, UniProt P00469)
Sequence (P00469 whole entry): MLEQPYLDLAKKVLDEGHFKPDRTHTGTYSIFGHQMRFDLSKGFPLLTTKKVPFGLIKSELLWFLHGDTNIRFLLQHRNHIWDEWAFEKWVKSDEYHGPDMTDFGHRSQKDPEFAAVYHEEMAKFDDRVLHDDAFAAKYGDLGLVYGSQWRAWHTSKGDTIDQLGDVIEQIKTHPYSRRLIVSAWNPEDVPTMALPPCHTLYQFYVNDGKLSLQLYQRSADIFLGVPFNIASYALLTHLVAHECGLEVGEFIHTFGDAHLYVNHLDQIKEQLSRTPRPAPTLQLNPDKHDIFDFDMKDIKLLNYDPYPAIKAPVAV
Experiment: Competitive inhibition of thymidylate synthase purified from methotrexate-resistant Lactobacillus casei using 2'-deoxy[5-3H]uridine 5'-phosphate by radioisotope assay
Give only the number. pKi is defined as minus log10 of concentration in molar units.

Look over these answered cases.
{"smilesString": "O=c1[nH]c(=O)n([C@H]2C[C@H](O)[C@@H](COP(=O)(O)O)O2)cc1[N+](=O)[O-]", "pKi": 7.54}
{"smilesString": "N#Cc1cn([C@H]2C[C@H](O)[C@@H](COP(=O)(O)O)O2)c(=O)[nH]c1=O", "pKi": 6.26}

Let us examine a further case.
Using the record for O=c1[nH]c(=O)n([C@H]2C[C@H](O)[C@@H](COP(=O)(O)O)O2)cc1S , report its pKi.
7.40
